Where these numbers come from: PubChem BioAssay (NCI)

System: UACC-257 melanoma
Experiment: NCI tumour cell line growth inhibition, 48 h
Reported endpoint: TGI

Observe how each entry below is paired with its result.
Record CC(C)=CCC[C@@H](C)c1c2[nH]c3ccccc3sc-2c(C)c(=O)c1=O , field TGI: > 75 µM

According to the records, this compound CC[C@@]1(O)C(=O)OCc2c1cc1n(c2=O)Cc2cc3c(N)cccc3nc2-1 displays TGI of 2.99 µM

The reported value for COc1ccc(/C=C2\CCC(CNc3ccc(Br)cc3)C2=O)cc1 (stereo not given) in terms of TGI is > 100 µM

---
TGI reported for this compound O=P(O)(O)CN1CCNCCN(CP(=O)(O)O)CCNCC1 : > 100 µM

---

Tested on: SK-MEL-28 melanoma
Assay: NCI tumour cell line growth inhibition, 48 h
Reported endpoint: log10(TGI) (log10 of the value in µM)
Please be aware that the numbers have been log10-transformed from TGI in µM.

// sample C=C[C@@](C)(/C=C/c1ccc(O)cc1)CCC=C(C)C , its log10(TGI) was 1.55

# log10(TGI) of O=C(O)C1C(C(=O)O)C2(Cl)C(Cl)=C(Cl)C1(Cl)C2(Cl)Cl.[Cd] (centres undefined) = 1.74

Entry under test: CN(C)C(=O)SC1=C(c2c(Cl)cccc2Cl)C(=O)c2ccccc21 . Its log10(TGI) was 0.95

Documented log10(TGI) of Cc1n(Cc2ccc3ccccc3c2)c(Cl)c(Cl)[n+]1Cc1ccc2ccccc2c1 : 0.50

For CC(=O)O[C@H]1C(=O)N(c2cc3c4ccccc4ccc3c3ccccc23)[C@@H]1c1ccccc1 the molecule record lists log10(TGI) as 1.82

---

Collected TGI values appear next to each entry.
System: RPMI-8226 leukemia
Test: NCI tumour cell line growth inhibition, 48 h

Worked set:
Memo: Cc1n(Cc2ccc3ccccc3c2)c(Cl)c(Cl)[n+]1Cc1ccc2ccccc2c1 , reported TGI: 3.12 µM

// O=P(O)(O)CN1CCNCCN(CP(=O)(O)O)CCNCC1 : TGI value = > 100 µM

// TGI lookup, molecule = CCCCCCOP(=O)(OCCCCCC)OC(C(=O)OC)C(F)(F)F (configuration not stated) , result: > 100 µM

---
According to the records, this molecule NS(=O)(=O)c1cc(S(N)(=O)=O)c(NC(=O)N(c2ccccc2)c2ccccc2)c(Cl)c1Cl displays TGI of 44.6 µM

Item: CC(C)(CO)N=Cc1ccccc1[O-].CC(C)(CO)N=Cc1ccccc1[O-].[Co+2] | TGI: > 93 µM

Please fill in: TGI reported for CCN(CC)CCN(C)CCc1ccc(Br)cc1 = > 100 µM

# TGI (molecule: CC1(C)COC(c2c(-c3ccccc3)noc2CS(=O)c2ccccc2)=N1 (configuration not stated) ) is > 100 µM

So, Cc1ccc(/C=C2\CNC/C(=C\c3ccc(C)cc3)C2=O)cc1 ? Its TGI was 0.69 µM

Note to self: TGI recorded for Cc1cc(S(=O)(=O)O)c(NC(=O)c2oc3cc(O)ccc3c(=O)c2C)cc1Cl was > 100 µM

What the record says about CCN(CC)CCCCC1CCN(CC(=O)N2c3ccccc3NC(=O)CC2C)CC1 (configuration not stated) : TGI is > 100 µM

Value of TGI reported for the molecule C=CC(=O)Nc1cccc(Nc2nc(Nc3ccc(OCCOC(F)F)cc3)ncc2F)c1 is 14.7 µM

Looking up CC(=O)O[C@H]1C(=O)N(c2cc3c4ccccc4ccc3c3ccccc23)[C@@H]1c1ccccc1 , I see its TGI listed as 6.77 µM

The molecule identified as NC(=O)c1cc(I)ccc1NC(=O)COc1ccccc1 registered its TGI at > 100 µM

// TGI value for Cc1cc(NC(=O)NC(=O)c2ccccc2N(C)C)ccc1Oc1ncc(Br)cn1 : 39.4 µM

Lab note: measured TGI of CCCCCCCCCCCCCCCCS(=O)(=O)c1ccc(NN)cc1 was > 10 µM

The molecule CC[P+]1(CC)CCCC1 showed TGI equal to > 100 µM

# TGI of COC1=CC(=O)C2=C(C1=O)[C@H]1CC[C@]3(C)[C@@H](OC(C)=O)CC[C@H]3[C@@H]1CC2 = > 100 µM

Briefly, TGI measured for Cc1cc([N+](=O)[O-])c(S(=O)(=O)c2ccccc2)c([N+](=O)[O-])c1 : 45.9 µM

Form: molecule = NC(=S)N/N=C\CC(O)(C(F)(F)F)C(F)(F)F ; TGI = > 10 µM

get_value(item= C/C(=C\Cc1cc(O)ccc1O)CCc1c(C)cc(O)c(C=O)c1C , readout=TGI) returns > 100 µM

Data point: COc1ccc(/C=C(/C(=O)n2cnnn2)c2cc(OC)c(OC)c(OC)c2)cc1 ; TGI = > 100 µM

Lab note: CCOC(=O)/C(C#N)=C/N(CC)/N=C/c1ccccc1 gave TGI of > 100 µM

---

A collection of compounds and their measured TGI
Tested on: SW-620 colon
Assay: NCI tumour cell line growth inhibition, 48 h

Some compounds with recorded TGI:
Record OC12CCCCCC1(N1CCOCC1)c1ccccc12 (stereo not given) , field TGI: > 100 µM

For CC1(C)COC(c2c(-c3ccccc3)noc2CS(=O)c2ccccc2)=N1 (stereo not given) the compound record lists TGI as > 100 µM

// field: TGI; key: COc1ccc(-c2nc3c(c(=O)n2C(C)=O)C(c2ccc(Cl)cc2)c2sc4c(Cl)cccc4c2O3)cc1 (stereo not given) ; value = 1.75 µM

Recorded result, Cc1ccc(/C=C2\CN(C)CC3C2=NC(=S)NC3c2ccc(C)cc2)cc1 (stereo not given) , TGI: > 100 µM

So, O=C(Nc1cc(S(=O)(=O)c2ccc(Cl)cc2)ccc1Cl)c1cc(I)cc(I)c1O ? Its TGI was 32 µM

Further cases:
For CCOC(=O)C1CCCCc2sc(N)c(C#N)c21 (stereo not given) the compound record lists TGI as > 100 µM

Note to self: TGI recorded for Cc1cc2occ(-c3ccc(Cl)cc3)c2c(=O)o1 was > 100 µM

---

Test system: OVCAR-8 ovarian
Assay: NCI tumour cell line growth inhibition, 48 h
Reported endpoint: TGI

Documented TGI of CC1=C2NCN(C)N=C2C(C#N)(C#N)C1(C#N)C#N : > 58.2 µM

Value of measured TGI for the entry COc1ccc(C2NCCc3c2[nH]c2ccccc32)cc1 (stereo not given) : > 100 µM

response.value for CC(=O)c1ccc(NC(=O)CSc2nc(C)nc3c2sc(=S)n3-c2ccccc2)cc1 (field: TGI) = > 10 µM

TGI for Fc1c[c-]c(-c2ccccn2)c(F)c1.[CH3-].[Pt+2].c1ccc(P(C[PH+](c2ccccc2)c2ccccc2)c2ccccc2)cc1 is 5.76 µM

TGI in this record for O=C(CSc1nc2ccc(I)cc2c(=O)n1Cc1ccccc1)NN1C(=O)CCC1=O : > 100 µM

Next:
For this compound ( O=C(O)Cn1ccnc1[N+](=O)[O-] ), measured TGI is > 100 µM

Lookup result for CC(C)(C)OC(=O)N1CCc2c(n(C/C=C/c3ccccc3)[nH]c2=O)C1 ; measured TGI: > 100 µM

Lab note: N#CCCC1(CCC#N)CCCCCCC(CCC#N)(CCC#N)C(O)C1O (stereo not given) gave TGI of > 100 µM

// TGI lookup, compound = Fc1cc(-c2nnc3n2N=C(c2ccc(Cl)cc2Cl)CS3)c(Cl)cc1Cl , result: > 100 µM

Reported TGI ( CC[C@H](C)[C@H](NC(=O)[C@H]1CCCCN1C)C(=O)N(C)[C@H](C[C@@H](OC(C)=O)c1nc(C(=O)N[C@@H](Cc2ccccc2)C[C@H](C)C(=O)OC)cs1)C(C)C ) = > 25 µM

---

Test system: RXF 393 renal
Test: NCI tumour cell line growth inhibition, 48 h
Reported endpoint: GI50

Example entries begin here.
Entry C1=C2CNCC3=Cc4ccc5ccccc5c4OC23Oc2c1ccc1ccccc21 — recorded GI50 = 1790 nM

Please fill in: GI50 reported for CC[C@H](C)[C@H](NC(=O)[C@H]1CCCCN1C)C(=O)N(C)[C@H](C[C@@H](OC(C)=O)c1nc(C(=O)N[C@@H](Cc2ccccc2)C[C@H](C)C(=O)OC)cs1)C(C)C = 2.5 nM

// field: GI50; key: COc1ccc2c(c1)nc1n2C(c2ccc(F)cc2)SC1 (centres undefined) ; value = 82900 nM

Query compound follows.
The compound listed as O=C(Nc1ccccc1O)c1ccc(CNC(=O)c2ccsc2Nc2ccnc(C(F)(F)F)c2)cc1 has a reported GI50 of 1930 nM

---

Tested on: SK-OV-3 ovarian
Assay: NCI tumour cell line growth inhibition, 48 h
Reported endpoint: TGI (µM)
Number in µM, nothing else.

// known answers, use as guide
Per the records, this molecule ( CCCCCCOc1ccc(C(=N)N(CCCC)CCCC)c2ccccc12 ) has TGI equal to 2.96

TGI in this record for COc1ccccc1/C=C\C(=O)c1ccccc1 : 26.5

Others:
Entry CC(=O)[CH-]C(=O)c1ccccc1.CC(=O)[CH-]C(=O)c1ccccc1.[CH2-]CCC.[CH2-]CCC.[Sn+4] , TGI reported as 3.99

Sample Oc1[nH]c2ccccc2c1/C=c1/cc2c(c(-c3ccc(C(F)(F)F)cc3)n1)=Nc1ccccc1-2 ; TGI observed: 56.6

Quick note, TGI for O=c1oc2ccc(F)cc2c(=O)n1-c1ccc(Br)cc1F landed at 6.25

So for Cc1cc(NC(=O)NC(=O)c2ccccc2N(C)C)ccc1Oc1ncc(Br)cn1 , the logged TGI turned out to be 16.8

Data point: O=c1[nH]c2cc(Cl)c(Cl)cc2n2cc3ccccc3c12 ; TGI = 33.1

So, COc1ccc(-c2cc(/C=C/C(=O)c3cc(OC)c(OC)c(OC)c3)[nH]n2)cc1OC ? Its TGI was 19

Measured TGI, CC/C(Cl)=N\OC(=O)Nc1ccc(F)cc1F : 37.4

Data point: COc1ccc(/C=C/C(=O)C(C)(C)Br)cc1 ; TGI = 63.1
